Target: IRAK4 (Homo sapiens (Human))
Assay: IRAK-4 biochemical kinase assay, AlphaScreen format
Details: 1 nM IRAK4, 1.6 μM peptide, 10 μM ATP, 3.5 h at RT; class symbols
pIC50: −log10 of the molar value.
measurement kind: pIC50

Worked set:
* CC(C)(C)OC(=O)N1CCN(CCn2ncc3c2C(=O)NCCOCCOc2cc(ccn2)-c2nc(cs2)C(=O)N3)CC1 | > 6.00
* CN1CCOCCNC(=O)c2nn(CCN3CCCCC3)cc2NC(=O)c2csc(n2)-c2ccnc1c2 | > 7.00
* CC(C)(C)OC(=O)Cn1cc2c(n1)C(=O)NCCOCCOc1cc(ccn1)-c1nc(cs1)C(=O)N2 | > 7.00
* O=C1Nc2cn(CCN3CCCCC3)nc2C(=O)NCCOCCNc2cc(ccn2)-c2nc1cs2 | > 7.00
* C[Si](C)(C)CCOCn1cc2nc1-c1ccnc(c1)CCCCCNC(=O)c1nn(C3CCOCC3)cc1NC2=O | > 5.00

Count: 7. Required value per item: pIC50.
1. O=C1Nc2ccccc2OC2CCC(CCc3cc(ccn3)-c3nc1co3)CC2
2. Cn1cc2c(n1)C(=O)NCCCCCc1cc(ccn1)-c1nc(cs1)C(=O)N2
3. Cn1cc2c(n1)C(=O)NCCCOCCOc1cc(ccn1)-c1nc(cs1)C(=O)N2
4. CNC(=O)N1CCCc2cc(ccn2)-c2nc(cs2)C(=O)Nc2cn(C3CCOCC3)nc2C(=O)NCC1
5. CC(C)n1cc2c(n1)C(=O)NCCOCCOc1cc(ccn1)-c1nc(cs1)C(=O)N2
6. CN1CCCCCCOc2cc(ccn2)-c2nc(cs2)C1=O
7. CN(C)C(=O)Cn1cc2c(n1)C(=O)NCCOCCOc1cc(ccn1)-c1nc(cs1)C(=O)N2

**A:**
["> 7.00", "> 7.00", "> 7.00", "> 7.00", "> 7.00", "> 5.00", "> 6.00"]

**Q:** Returns the measured pIC50 for the input compound. Input: O=C(O)CCN1CCCc2cc(ccn2)-c2nc(cs2)C(=O)Nc2cn(C3CCOCC3)nc2C(=O)NCC1
**A:** > 7.00

###

Biological target: IRAK4 (Homo sapiens (Human), UniProt Q9NWZ3)
Sequence (Q9NWZ3 whole entry, species assumed): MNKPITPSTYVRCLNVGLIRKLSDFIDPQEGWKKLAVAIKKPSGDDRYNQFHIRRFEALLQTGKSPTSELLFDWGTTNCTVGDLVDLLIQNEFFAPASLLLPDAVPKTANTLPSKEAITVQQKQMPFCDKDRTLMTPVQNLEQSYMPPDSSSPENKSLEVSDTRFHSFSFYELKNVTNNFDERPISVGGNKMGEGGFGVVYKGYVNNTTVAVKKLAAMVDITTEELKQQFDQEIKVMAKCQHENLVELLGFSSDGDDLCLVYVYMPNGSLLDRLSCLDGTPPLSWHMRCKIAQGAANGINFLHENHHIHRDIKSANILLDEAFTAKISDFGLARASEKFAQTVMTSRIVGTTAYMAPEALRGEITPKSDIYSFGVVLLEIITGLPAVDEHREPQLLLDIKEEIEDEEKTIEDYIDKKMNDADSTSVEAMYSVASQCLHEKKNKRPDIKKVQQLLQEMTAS
Experiment: IRAK-4 biochemical kinase assay, AlphaScreen format
Conditions: 1 nM IRAK4, 1.6 μM peptide, 10 μM ATP, 3.5 h at RT; given as numeric bound
Experimental: The biochemical assay is in a AlphaScreen format. The kinase reaction is based on the IRAK-4 phosphorylation of a biotin labeled peptide. The phosphopeptide is incubated with anti-phosphothreonine antibody as well as streptavidin- and protein A-coated beads. Binding of the protein-A coated beads to the antibody and the streptavidin beads to the peptide, leads to an energy transfer from one bead to the other, ultimately producing a luminescent/fluorescent signal.
I'd appreciate it if you could supply IC50 values for the items below.

Worked set:
• COC(=O)c1ccc2c(c1)NC(=O)c1csc(n1)-c1ccnc(c1)NCCCCCO2 = > 10 µM
• O=C1NCC(C2CCCCC2)OCCCCCNc2cc(ccn2)-c2nc1co2 (stereo not drawn) = > 10 µM

Query compound follows.
**Q:** Returns the measured IC50 for the input compound. Input: Cn1cc(N2CCCCOc3cnccc3-c3nc(co3)C2=O)cn1
**A:** > 10 µM
